system: RXRa homodimer (NR concentration 180 nM); assay: PBM binding z-score (relative to random genomic background probes); higher = stronger binding; sequences stand for … in GC…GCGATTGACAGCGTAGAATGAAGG
Property: PBM binding z-score; scope: individual sequences

Worked set:
TTACCAAGGTGAGCCGAGGTCGTTGATCCAACTC :: 1.77
ATATGTAGGTTATCGGGTCATTAAGTTTGCGCAT :: 3.23
TATACAGGGTCATAGGCCAGAGTACGAATGTCGA :: 6.27
TCTTGAAGATCAATAGAGGTTAAGAAAGTGCGCT :: 1.49
TATACAGGGTCAATGGCCAGAGTACGAATGTCGA :: 5.41
TATCCAGGGTCAAAGGCCAGAGTACGAATGTCGA :: 7.51
ACTATTAGTTGAGACGAGGGCATCCGATAGGTTG :: 0.473
CCAGACAGGTGAGAAGGTAAATCAGCCTCGATTA :: 0.202

Looking up CTCGAAAGGTCGTGCTCAGGTGAGTATTCCAAAC , I found its PBM binding z-score recorded as 4.55

Looking up ACTAATAGTTGAGACGAGGGCAACCGATAGGTTG , I found its PBM binding z-score recorded as 0.834

Looking up GCGACTGGGGCAAAGCCGGTTACCATAAGGTTGG , I found its PBM binding z-score recorded as -0.295

Looking up TCGAGTAGGTTACCACTGGGGCATTCAGCTTTCT , I found its PBM binding z-score recorded as 0.129

Looking up TGAATGAGGTTAAAGATCCGGGAACGTGGCGTCG , I found its PBM binding z-score recorded as 2.61

Looking up GCTCGGATGACAAGGTCAGAGCTTTGTCCGTAGA , I found its PBM binding z-score recorded as 2.15

Looking up TCATATAGGTAAAAGGTGAAATTCGGTGTGGTAA , I found its PBM binding z-score recorded as 3.04

---

Property: PBM binding z-score; scope: individual sequences
system: PXR:RXRa (NR concentration 270 nM, RXRa partner concentration 90 nM); assay: PBM binding z-score (relative to random genomic background probes); higher = stronger binding; sequences stand for … in GC…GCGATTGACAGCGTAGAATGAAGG

Worked set:
CCTATTAGTTTACCATAAGGGCAACCGAAGCTCG :: 0.681
TCGAGTAGGTTAGTCGGGCCATTCAGCCAACATA :: -0.339
CCTACTTGGTCAGGAGGTCACACACCGGATATGA :: 4.26
CCTCGGGGGACAGAAGGTCAGAGCTGTCCGCTTT :: 2.99
TTATATAGGTAAACAGGTGAAAGTCCGTAAGTTA :: 0.532

Looking up ATCGAAAGGTCGACGAGGTGAGTGTACACCGTTT , I found its PBM binding z-score recorded as 3.37

---

tested on: PPARg DBDmut IVT, anti-PPARg (DBD mutation: PPARg1 K132A/R137A, NR concentration 270 nM); assay: PBM binding z-score (relative to random genomic background probes); higher = stronger binding; sequences stand for … in GC…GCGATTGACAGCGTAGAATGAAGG
READOUT_KIND: PBM binding z-score
Response field accepts a number only; no unit should be typed.

Worked set:
TCTATTAGTTGAAGTGCAACCGACGAGTCCGTTT :: 1
CCTATTAGTTGACCATAAGGGCCACCGAAGCTCG :: 0.579
TTACCAAGGTGAGCTCAGGTCGTTGATCCAACTC :: -0.46

Noted PBM binding z-score for TCGCGTAGGTTAGGGGCATTCAGAATGGCGTCGA , tested on PPARg DBDmut IVT, anti-PPARg (DBD mutation: PPARg1 K132A/R137A, NR concentration 270 nM): -0.621

Noted PBM binding z-score for ACTAGCAGGCCAAGTTTGGGTCGCTCAAACAAAG , tested on PPARg DBDmut IVT, anti-PPARg (DBD mutation: PPARg1 K132A/R137A, NR concentration 270 nM): -0.527

Noted PBM binding z-score for TGAATGAGGTTAAAGATCTGGGAACGTGGCGTCG , tested on PPARg DBDmut IVT, anti-PPARg (DBD mutation: PPARg1 K132A/R137A, NR concentration 270 nM): -0.223

Noted PBM binding z-score for AGAACGAGGGCACGCTGAGTTCATAGCAGAGTAG , tested on PPARg DBDmut IVT, anti-PPARg (DBD mutation: PPARg1 K132A/R137A, NR concentration 270 nM): -0.0454

Noted PBM binding z-score for CTTCGGAGGACAACAGGAGGTCAGAGCTGCCAGA , tested on PPARg DBDmut IVT, anti-PPARg (DBD mutation: PPARg1 K132A/R137A, NR concentration 270 nM): -1.62

Noted PBM binding z-score for TCTGCTAGGTCAACGAGGGTCAGCTAATCTGCTA , tested on PPARg DBDmut IVT, anti-PPARg (DBD mutation: PPARg1 K132A/R137A, NR concentration 270 nM): -0.307

Noted PBM binding z-score for ATACCAAGGTGATCGTGAAGTCGTTGATACTAAC , tested on PPARg DBDmut IVT, anti-PPARg (DBD mutation: PPARg1 K132A/R137A, NR concentration 270 nM): 0.615

Noted PBM binding z-score for TCAAGTTGGTCACGGAGGTCACACACGACGGGTA , tested on PPARg DBDmut IVT, anti-PPARg (DBD mutation: PPARg1 K132A/R137A, NR concentration 270 nM): 0.93

Noted PBM binding z-score for GCTTACGGGTCAAAGATTATAGCATGAATAGAAT , tested on PPARg DBDmut IVT, anti-PPARg (DBD mutation: PPARg1 K132A/R137A, NR concentration 270 nM): 1.16

Noted PBM binding z-score for AACTCTAGGTAACCAAGTTCAGTGAATGCCGAAC , tested on PPARg DBDmut IVT, anti-PPARg (DBD mutation: PPARg1 K132A/R137A, NR concentration 270 nM): 0.215

Noted PBM binding z-score for CTTCCAAGGTCAAGGTCAGTGAAAGAGACTCGAA , tested on PPARg DBDmut IVT, anti-PPARg (DBD mutation: PPARg1 K132A/R137A, NR concentration 270 nM): 0.303

Every entry's value here was drawn from the supplement of paper PMC6555819.
